System: Thymidine Kinase (TK1)
PROCEDURE_DETAILS: Kinetic constant Km for Thymidine Kinase (TK1)
Format: ADME
REPORTED_ENDPOINT: Km (µM)
Write the number in µM without appending the unit.

Tell me reported Km for Cc1cn([C@H]2C[C@H](O)[C@@H](CO)O2)c(=O)[nH]c1=O , tested with Thymidine Kinase (TK1). 1

Origin of values: ChEMBL document CHEMBL1132362
